Experiment: HepG2 cell cytotoxicity, dose response, cytotoxicity control, luminescence, dry powder, set 12 (AID 743471)
Conditions: HepG2 viability, ATP luminescence (CellTiter-Glo), 72 h; at 26 µM (top of the series)
Catalogue of compounds with associated activity change, negative = cytotoxicity
Answer in %, number only, no unit symbol.

Below are worked cases with known answers.
COc1ccc(C2C(C#N)=C(N)Oc3cc(N)ccc32)cc1 (configuration not stated) | -5.71
N#Cc1ccc(-c2ccc3c(c2)[C@H]2[C@H](CCN2S(=O)(=O)c2ccccc2F)[C@@H](CO)N3)cc1 | -18.6
N#CC1=C(N)Oc2cc(N)ccc2C1c1ccc(Cl)cc1 (configuration not stated) | -15.5
Cc1c([C@H](C(Cl)Cl)[C@H](O)[C@H]2C[C@H](C)C(=O)O2)ccc2c1C(=O)[C@H]1[C@H]2C[C@@H](Br)[C@@]23O[C@@H](CO[C@H]2O)C[C@]13C | -19.2
N#CC1=C(N)Oc2cc(N)ccc2C1c1ccc2ccccc2c1 (configuration not stated) | -25.4
COc1ccc(S(=O)(=O)N2CC[C@@H]3[C@@H](CO)N(C)c4ccc(-c5ccc(F)cc5)cc4[C@@H]32)cc1 | -2.59

Prompt line: I am curious: what activity change, negative = cytotoxicity value has been reported for COc1cc(Nc2ncc3c(n2)-c2ccc(Cl)cc2C(c2c(F)cccc2OC)=NC3)ccc1C(=O)O ?
Response line: -12.9

Prompt line: I am curious: what activity change, negative = cytotoxicity value has been reported for COc1ccc(OC)c(-c2nnc3n2N=C(c2ccc(OC)c(OC)c2)CS3)c1 ?
Response line: -21.2

Prompt line: I am curious: what activity change, negative = cytotoxicity value has been reported for CN(C(=O)CCCOc1ccc2[nH]c(=O)ccc2c1)C1CCCCC1 ?
Response line: -11.4

Prompt line: I am curious: what activity change, negative = cytotoxicity value has been reported for COc1ccc(S(=O)(=O)N2CC[C@@H]3[C@H](CO)Nc4ccc(-c5ccc(C#N)cc5)cc4[C@@H]32)cc1 ?
Response line: -32.1

Prompt line: I am curious: what activity change, negative = cytotoxicity value has been reported for Cc1ccc(C2C(C#N)=C(N)Oc3cc(N)ccc32)cc1 (configuration not stated) ?
Response line: 1.29

Prompt line: I am curious: what activity change, negative = cytotoxicity value has been reported for CN(C)c1ccc2c(c1)OC(N)=C(C#N)C2c1cccc(F)c1 (configuration not stated) ?
Response line: -8.25
